Target: hERG K+ channel (Homo sapiens, UniProt Q12809)
Construct: expressed in transfected cells; host or cells: CHO (Chinese hamster ovary)
Sequence (Q12809 whole entry): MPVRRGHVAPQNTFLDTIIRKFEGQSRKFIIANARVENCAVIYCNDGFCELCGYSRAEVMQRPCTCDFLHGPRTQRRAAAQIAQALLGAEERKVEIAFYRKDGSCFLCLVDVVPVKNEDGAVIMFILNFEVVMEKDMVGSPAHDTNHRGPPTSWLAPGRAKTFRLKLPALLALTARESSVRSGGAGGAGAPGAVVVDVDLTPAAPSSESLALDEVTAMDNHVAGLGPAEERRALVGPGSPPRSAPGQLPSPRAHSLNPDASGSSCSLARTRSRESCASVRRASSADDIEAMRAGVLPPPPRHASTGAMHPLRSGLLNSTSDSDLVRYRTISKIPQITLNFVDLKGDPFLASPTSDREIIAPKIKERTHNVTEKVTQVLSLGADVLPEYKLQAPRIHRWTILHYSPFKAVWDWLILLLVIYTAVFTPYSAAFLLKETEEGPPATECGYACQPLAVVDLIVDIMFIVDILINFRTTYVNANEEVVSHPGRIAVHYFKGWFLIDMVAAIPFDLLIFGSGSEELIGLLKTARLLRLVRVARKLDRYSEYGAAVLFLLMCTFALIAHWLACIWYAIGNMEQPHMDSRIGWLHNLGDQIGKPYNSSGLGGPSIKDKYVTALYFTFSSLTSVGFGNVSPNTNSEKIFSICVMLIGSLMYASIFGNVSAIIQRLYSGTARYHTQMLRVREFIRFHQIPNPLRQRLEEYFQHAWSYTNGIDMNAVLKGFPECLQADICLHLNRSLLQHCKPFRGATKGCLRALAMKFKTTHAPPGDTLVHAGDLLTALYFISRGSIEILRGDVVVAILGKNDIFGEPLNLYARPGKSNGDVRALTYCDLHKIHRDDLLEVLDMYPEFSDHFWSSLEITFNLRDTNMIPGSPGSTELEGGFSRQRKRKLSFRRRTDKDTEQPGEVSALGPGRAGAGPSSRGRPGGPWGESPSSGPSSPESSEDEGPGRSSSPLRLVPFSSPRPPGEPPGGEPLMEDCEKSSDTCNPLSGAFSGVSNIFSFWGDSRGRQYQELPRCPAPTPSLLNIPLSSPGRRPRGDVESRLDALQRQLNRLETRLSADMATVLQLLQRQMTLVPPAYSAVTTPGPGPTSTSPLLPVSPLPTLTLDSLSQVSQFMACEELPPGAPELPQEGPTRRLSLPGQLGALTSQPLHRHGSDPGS
Assay: hERG channel inhibition assay (patch-clamp, CHO-hERG cells)
Format: cell-based
Conditions: human, CHO cells stably expressing hERG; CHO-hERG cells, whole-cell patch-clamp
metric: IC20

query: # input compound: CO[C@@H]1CN(c2ccc([C@H]3CCN(c4cc(C)nc5c4cnn5C)C[C@@H]3C)nc2)C[C@H]1N ; wanted: its IC20
result: > 10 µM

query: # input compound: Cc1cc(N2CCC(c3ccc(N4CCNCC4)cc3)CC2)c2cnn(C)c2n1 ; wanted: its IC20
result: 4 µM

query: # input compound: COC[C@H]1CN(c2ccc([C@H]3CCN(c4cc(C)nc5c4cnn5C)C[C@@H]3C)nc2)CCN1 ; wanted: its IC20
result: > 10 µM

----------
Biological target: hERG K+ channel (Homo sapiens, UniProt Q12809)
Construct: expressed in transfected cells; host or cells: CHO (Chinese hamster ovary)
Assay: hERG channel inhibition assay (patch-clamp, CHO-hERG cells)
Assay type: cell-based
Details: safety ratio
metric: hERG IC20/TLR9 IC50
Reply briefly: the number, and no unit.

query: Hello, I am looking for reported hERG IC20/TLR9 IC50 with hERG K+ channel (Homo sapiens, UniProt Q12809) for Cc1cc(N2CCC(c3ccc(N4CCNCC4)cc3)CC2)c2cnn(C)c2n1 . Could you help?
result: 14.5

query: Hello, I am looking for reported hERG IC20/TLR9 IC50 with hERG K+ channel (Homo sapiens, UniProt Q12809) for Cc1cc(N2CC[C@H](c3ccc(N4CC5(CNCCO5)C4)cn3)[C@@H](C)C2)c2cnn(C)c2n1 . Could you help?
result: 27.1

query: Hello, I am looking for reported hERG IC20/TLR9 IC50 with hERG K+ channel (Homo sapiens, UniProt Q12809) for Cc1cc(N2CCC(c3ncc(N4CCNCC4)nc3C)CC2)c2cnn(C)c2n1 . Could you help?
result: 15.5

query: Hello, I am looking for reported hERG IC20/TLR9 IC50 with hERG K+ channel (Homo sapiens, UniProt Q12809) for COC[C@H]1CN(c2cnc([C@@H]3CCN(c4cc(C)nc5c4cnn5C)C[C@H]3C)c(C)c2)CCN1 . Could you help?
result: 18.5

query: Hello, I am looking for reported hERG IC20/TLR9 IC50 with hERG K+ channel (Homo sapiens, UniProt Q12809) for Cc1cc(N2CCC(c3ncc(N4CCNCC4)cc3C)CC2)c2cnn(C)c2n1 . Could you help?
result: 98.1

query: Hello, I am looking for reported hERG IC20/TLR9 IC50 with hERG K+ channel (Homo sapiens, UniProt Q12809) for Cc1cc(N2CC[C@@H](c3ncc(N4CC(C)(N)C4)cc3C)[C@H](C)C2)c2cnn(C)c2n1 . Could you help?
result: 23.7

query: Hello, I am looking for reported hERG IC20/TLR9 IC50 with hERG K+ channel (Homo sapiens, UniProt Q12809) for Cc1cc(N2CCC(c3cnc(N4CCNCC4)nc3C)CC2)c2cnn(C)c2n1 . Could you help?
result: 72.1

query: Hello, I am looking for reported hERG IC20/TLR9 IC50 with hERG K+ channel (Homo sapiens, UniProt Q12809) for Cc1cc(N2CC[C@@H](c3ncc(N4C[C@H]5NCCO[C@@H]5C4)cc3C)[C@H](C)C2)c2cnn(C)c2n1 . Could you help?
result: 51.9

query: Hello, I am looking for reported hERG IC20/TLR9 IC50 with hERG K+ channel (Homo sapiens, UniProt Q12809) for Cc1cc(N2CC[C@@H](c3ncc(N4CCOC[C@@H](N)C4)cc3C)[C@H](C)C2)c2cnn(C)c2n1 . Could you help?
result: 50.8

query: Hello, I am looking for reported hERG IC20/TLR9 IC50 with hERG K+ channel (Homo sapiens, UniProt Q12809) for Cc1cc(N2CC[C@@H](c3ncc(N4CCNC5(CC5)C4)cc3C)[C@H](C)C2)c2cnn(C)c2n1 . Could you help?
result: 11.6

query: Hello, I am looking for reported hERG IC20/TLR9 IC50 with hERG K+ channel (Homo sapiens, UniProt Q12809) for Cc1cc(N2CCNCC2)ncc1C1CCN(c2ccnc3c2cnn3C)CC1 . Could you help?
result: 21.2

query: Hello, I am looking for reported hERG IC20/TLR9 IC50 with hERG K+ channel (Homo sapiens, UniProt Q12809) for Cc1cc(N2CC[C@H](c3ccc(N4CCOC[C@@H](N)C4)cn3)[C@@H](C)C2)c2cnn(C)c2n1 . Could you help?
result: 34.1

----------
Assignment: determine reported IC50 for the given compounds.
Target: human TLR8 (Homo sapiens)
Construct: host or cells: HEK293 (HEK-Blue hTLR8)
Sequence (Q9NR97 27-1041): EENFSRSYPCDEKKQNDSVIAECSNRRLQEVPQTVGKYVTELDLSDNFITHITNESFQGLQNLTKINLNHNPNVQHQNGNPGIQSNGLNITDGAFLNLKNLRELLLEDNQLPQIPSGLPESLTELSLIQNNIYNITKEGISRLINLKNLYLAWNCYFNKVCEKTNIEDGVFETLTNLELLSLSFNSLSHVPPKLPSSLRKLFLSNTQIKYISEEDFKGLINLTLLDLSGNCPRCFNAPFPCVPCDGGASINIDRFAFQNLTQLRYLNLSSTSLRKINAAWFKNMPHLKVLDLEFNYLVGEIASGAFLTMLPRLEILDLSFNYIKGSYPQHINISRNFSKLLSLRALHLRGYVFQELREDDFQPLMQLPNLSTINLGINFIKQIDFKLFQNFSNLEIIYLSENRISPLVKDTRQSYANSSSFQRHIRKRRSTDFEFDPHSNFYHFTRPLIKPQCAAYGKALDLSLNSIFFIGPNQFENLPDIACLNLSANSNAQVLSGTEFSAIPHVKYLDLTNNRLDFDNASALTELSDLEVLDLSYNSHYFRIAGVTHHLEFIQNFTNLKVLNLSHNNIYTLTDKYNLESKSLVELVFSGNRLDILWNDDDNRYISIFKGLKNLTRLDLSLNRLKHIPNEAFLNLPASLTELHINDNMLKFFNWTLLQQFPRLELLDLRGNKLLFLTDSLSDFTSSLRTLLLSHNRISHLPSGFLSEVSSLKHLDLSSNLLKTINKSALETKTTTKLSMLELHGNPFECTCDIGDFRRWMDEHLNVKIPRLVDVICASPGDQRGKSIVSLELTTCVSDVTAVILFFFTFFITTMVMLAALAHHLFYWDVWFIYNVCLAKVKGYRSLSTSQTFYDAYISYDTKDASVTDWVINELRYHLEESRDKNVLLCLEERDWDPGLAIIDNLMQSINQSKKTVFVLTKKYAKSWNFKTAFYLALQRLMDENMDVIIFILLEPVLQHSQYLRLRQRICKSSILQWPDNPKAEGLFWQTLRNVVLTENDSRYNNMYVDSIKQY
Assay: HEK293-Blue-hTLR-8 cells assay
Format: cell-based
Details: HEK293-Blue-hTLR8 cells, R848 stimulation, 20 hrs; read-out: HEK/hTLR8 IC50
Answer in nM, number only, no unit symbol.

query: Hello, I am looking for reported IC50 with human TLR8 (Homo sapiens) for COC[C@H]1CN(c2cnc([C@@H]3CCN(c4cc(C)nc5c4cnn5C)C[C@H]3C)c(C)c2)CCN1 [Example 29] . Could you help?
result: 8

query: Hello, I am looking for reported IC50 with human TLR8 (Homo sapiens) for Cc1cc(N2CCC(c3cnc(N4CCNCC4)cc3C)[C@H](C)C2)c2cnn(C)c2n1 (single isomer, unassigned) [Example 21] . Could you help?
result: 3

query: Hello, I am looking for reported IC50 with human TLR8 (Homo sapiens) for Cc1cc(N2CCC(c3ccc(N4CCNCC4)cn3)CC2)c2cnn(C)c2n1 [Example 2] . Could you help?
result: 21

query: Hello, I am looking for reported IC50 with human TLR8 (Homo sapiens) for CO[C@H]1CN(c2ccc([C@H]3CCN(c4cc(C)nc5c4cnn5C)C[C@@H]3C)nc2)CC[C@@H]1N [Example 39] . Could you help?
result: 10

query: Hello, I am looking for reported IC50 with human TLR8 (Homo sapiens) for Cc1cc(N2CC[C@@H](c3ncc(N4CC[C@@H](N)[C@H](F)C4)cc3C)[C@H](C)C2)c2cnn(C)c2n1 [Example 31] . Could you help?
result: 9

query: Hello, I am looking for reported IC50 with human TLR8 (Homo sapiens) for Cc1cc(N2CCC(c3cnc(N4CCNCC4)cc3C)[C@H](C)C2)c2cnn(C)c2n1 (single isomer, unassigned) [Example 20] . Could you help?
result: 6

query: Hello, I am looking for reported IC50 with human TLR8 (Homo sapiens) for Cc1cc(N2CC[C@H](c3ccc(N4CCNCC4)cn3)[C@@H](C)C2)c2cnn(C)c2n1 [Example 35] . Could you help?
result: 9

----------
Test: Single dose pharmacokinetics (PK) study in male Wister-Han rats
Format: in vivo
Settings: male, Wister-Han, plasma; rat, IV 2 mg/kg
metric: clearance (mL/min/kg)
Answer in mL/min/kg, number only, no unit symbol.

query: # input compound: CO[C@@H]1CN(c2cnc([C@@H]3CCN(c4cc(C)nc5c4cnn5C)C[C@H]3C)c(C)c2)C[C@H]1N ; wanted: its clearance
result: 10.3

query: # input compound: Cc1cc(N2CCC(c3ncc(N4CCNCC4)cc3C)CC2)c2cnn(C)c2n1 ; wanted: its clearance
result: 16

query: # input compound: Cc1cc(N2CC[C@@H](c3ncc(N4CCOC[C@@H](N)C4)cc3C)[C@H](C)C2)c2cnn(C)c2n1 ; wanted: its clearance
result: 30.2

query: # input compound: Cc1cc(N2CC[C@H](c3ccc(N4CCOC[C@@H](N)C4)cn3)[C@@H](C)C2)c2cnn(C)c2n1 ; wanted: its clearance
result: 32.8

----------
Experiment: Single dose pharmacokinetics (PK) study in male Wister-Han rats
Format: in vivo
Settings: male, Wister-Han, plasma; rat, IV 2 mg/kg; read-out: Vss
metric: Vd

query: # input compound: Cc1cc(N2CC[C@H](c3ccc(N4CCOC[C@@H](N)C4)cn3)[C@@H](C)C2)c2cnn(C)c2n1 [Example 40] ; wanted: its Vd
result: 13.2 L/kg

query: # input compound: Cc1cc(N2CCC(c3ncc(N4CCNCC4)cc3C)CC2)c2cnn(C)c2n1 [Example 7] ; wanted: its Vd
result: 16.8 L/kg

query: # input compound: CO[C@@H]1CN(c2cnc([C@@H]3CCN(c4cc(C)nc5c4cnn5C)C[C@H]3C)c(C)c2)C[C@H]1N [Example 26] ; wanted: its Vd
result: 12.5 L/kg

query: # input compound: Cc1cc(N2CC[C@@H](c3ncc(N4CCOC[C@@H](N)C4)cc3C)[C@H](C)C2)c2cnn(C)c2n1 [Example 28] ; wanted: its Vd
result: 16.7 L/kg

----------
Molecular target: hERG K+ channel (Homo sapiens, UniProt Q12809)
Construct: expressed in transfected cells; host or cells: CHO (Chinese hamster ovary)
Assay: hERG channel inhibition assay (patch-clamp, CHO-hERG cells)
Assay type: cell-based
Conditions: CHO-hERG cells, whole-cell patch-clamp
pIC50: −log10 of the molar value.
metric: pIC50

query: # input compound: Cc1cc(N2CCC(c3ccc(N4CCNCC4)cc3)CC2)c2cnn(C)c2n1 ; wanted: its pIC50
result: < 5.00

query: # input compound: Cc1cc(N2CC[C@@H](c3ncc(N4CC(C)(N)C4)cc3C)[C@H](C)C2)c2cnn(C)c2n1 ; wanted: its pIC50
result: < 5.00

query: # input compound: Cc1cc(N2CC[C@H](c3ccc(N4CC5(CNCCO5)C4)cn3)[C@@H](C)C2)c2cnn(C)c2n1 ; wanted: its pIC50
result: < 4.70

query: # input compound: Cc1cc(N2CC[C@@H](c3ncc(N4CCOC[C@@H](N)C4)cc3C)[C@H](C)C2)c2cnn(C)c2n1 ; wanted: its pIC50
result: < 4.70
